target: T1, human IL-17A (construct not specified) (human, UniProt Q16552 24-155, limits assumed)
T1 construct: also called huIL-17A
T1 sequence: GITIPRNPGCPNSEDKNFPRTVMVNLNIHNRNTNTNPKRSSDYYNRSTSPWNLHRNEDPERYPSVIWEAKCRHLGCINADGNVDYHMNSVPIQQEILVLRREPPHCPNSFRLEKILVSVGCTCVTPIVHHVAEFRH
method: ELISA, coated huIL-17A, crude Fab extract
test_readout: Classic ELISA (normalized to XAB1 Fab) (fold)
State just the number; it will be interpreted in fold.

Guide cases for Classic ELISA (normalized to XAB1 Fab), answers given:
Q: Would you kindly share the measured Classic ELISA (normalized to XAB1 Fab) for MB457 (Fab, V domains shown, Fab variant of XAB1) VH: EVQLVESGGDLVQPGGSLRLSCAASGFTFSSYWMSWVRQAPGKGLEWVANIKQDGSEKYYVDSVKGRFTISRDNAKNSLYLQMNSLRAEDTAVYYCARDRGSLYYWGQGTLVTVSS VL: AIQLTQSPSSLSASVGDRVTITCRPSQGIIWSLAWYQQKPGKAPKLLIYDASSLENGVPSRFSGSGSGTDFTLTISSLQPEDFATYYCQQFNSYPLTFGGGTKVEIK ?
Result: 2.7

Q: Which Classic ELISA (normalized to XAB1 Fab) is reported for this binder? MB454 (Fab, V domains shown, Fab variant of XAB1) VH: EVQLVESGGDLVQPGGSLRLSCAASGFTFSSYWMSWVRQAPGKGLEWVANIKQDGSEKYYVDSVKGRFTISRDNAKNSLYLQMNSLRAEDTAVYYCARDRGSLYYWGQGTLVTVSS VL: AIQLTQSPSSLSASVGDRVTITCRPSQGILWALAWYQQKPGKAPKLLIYDASSLENGVPSRFSGSGSGTDFTLTISSLQPEDFATYYCQQFNSYPLTFGGGTKVEIK
Result: 2.9

// below: Classic ELISA (normalized to XAB1 Fab) requested for another binder
Q: Which Classic ELISA (normalized to XAB1 Fab) is reported for this binder? MB468 (Fab, V domains shown, Fab variant of XAB1) VH: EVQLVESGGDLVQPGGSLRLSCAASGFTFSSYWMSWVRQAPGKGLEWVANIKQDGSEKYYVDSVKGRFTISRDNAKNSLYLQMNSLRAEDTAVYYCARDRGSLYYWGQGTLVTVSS VL: AIQLTQSPSSLSASVGDRVTITCRPSQGIYWELAWYQQKPGKAPKLLIYDASSLENGVPSRFSGSGSGTDFTLTISSLQPEDFATYYCQQFNSYPLTFGGGTKVEIK
Result: 2.8
